# testSystem: Large neutral amino acids transporter small subunit 1 (Homo sapiens)
# Sequence (Q01650 whole entry): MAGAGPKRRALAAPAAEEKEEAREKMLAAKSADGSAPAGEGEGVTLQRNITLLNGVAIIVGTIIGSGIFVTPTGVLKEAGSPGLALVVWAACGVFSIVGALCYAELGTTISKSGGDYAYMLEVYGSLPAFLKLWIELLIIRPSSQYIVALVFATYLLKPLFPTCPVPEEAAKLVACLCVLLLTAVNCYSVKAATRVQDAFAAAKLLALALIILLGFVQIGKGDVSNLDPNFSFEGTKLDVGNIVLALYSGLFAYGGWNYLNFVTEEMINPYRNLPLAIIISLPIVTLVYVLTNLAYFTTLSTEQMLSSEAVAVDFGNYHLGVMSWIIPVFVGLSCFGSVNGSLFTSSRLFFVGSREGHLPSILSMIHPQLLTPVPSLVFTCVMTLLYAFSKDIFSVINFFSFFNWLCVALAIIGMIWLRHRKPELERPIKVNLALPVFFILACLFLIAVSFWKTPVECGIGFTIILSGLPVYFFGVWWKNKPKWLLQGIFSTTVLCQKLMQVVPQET
# procedureSummary: Inhibition of [14C]-L-leucine uptake at LAT1 in human YD-38 cells after 1 hr by liquid scintillation counting
# Assay type: cell-based
measurementLabel: IC50 (µM)
Value expressed in µM; do not type the unit.

GET /values?readout=IC50&item= Nc1cc(COc2c(Cl)cc(C[C@H](N)C(=O)O)cc2Cl)c2oc(-c3ccccc3)nc2c1
0.79

###

# procedureSummary: Fraction unbound in mouse liver at 23 umol/kg, ip administered as bolus by LC-MS analysis
# Format: ADME, organism-based
measurementLabel: fraction unbound
No unit in the answer, only the number.

I have this compound here, CNC(=O)COc1ccc(-c2c(C#N)c(NC(=O)c3cccc(C[C@H](N)C(=O)O)c3)n3c(nc4ccccc43)c2C#N)cc1 , and I need its recorded fraction unbound.
0.0098

###

# procedureSummary: Cmax in mouse plasma at 23 umol/kg, ip administered as bolus by LC-MS analysis
# Assay type: ADME, organism-based
# Parameters: dose 23 umol/kg, route intraperitoneal
measurementLabel: Cmax (µM)
API: value field is a number in µM; no unit string.

Please give the measured Cmax for this compound: CNC(=O)COc1ccc(-c2c(C#N)c(NC(=O)c3cccc(C[C@H](N)C(=O)O)c3)n3c(nc4ccccc43)c2C#N)cc1
19.5

###

# procedureSummary: Terminal half life in mouse kidney at 23 umol/kg, ip administered as bolus by LC-MS analysis
# Type: ADME, organism-based
# conditionContext: read-out: beta t1/2
measurementLabel: half-life (min)
Expressed in min, but write only the number.

Value lookup for half-life; key = CNC(=O)COc1ccc(-c2c(C#N)c(NC(=O)c3cccc(C[C@H](N)C(=O)O)c3)n3c(nc4ccccc43)c2C#N)cc1
41.8

###

# testSystem: Large neutral amino acids transporter small subunit 1 (Homo sapiens)
# procedureSummary: Competitive inhibition of [14C]-L-leucine uptake at LAT1 in human MCF7 cells preincubated for 5 mins followed by addition of substrate measured during 5 mins by liquid scintillation counting
# Assay type: cell-based
Recorded IC50 by entry
Answer with a number only, understood to be in µM.

Reported IC50 for CNC(=O)COc1ccc(-c2c(C#N)c(NC(=O)c3cccc(C[C@H](N)C(=O)O)c3)n3c(nc4ccccc43)c2C#N)cc1 : what is it?
18.2

Again, but for NC1(C(=O)O)CC2CCC1C2 (configuration not stated)
112

###

# procedureSummary: Fraction unbound in mouse heart at 23 umol/kg, ip administered as bolus by LC-MS analysis
# Format: ADME, organism-based
measurementLabel: fraction unbound
Note: the reply should be a number with no unit written.

Please give the measured fraction unbound for this compound: CNC(=O)COc1ccc(-c2c(C#N)c(NC(=O)c3cccc(C[C@H](N)C(=O)O)c3)n3c(nc4ccccc43)c2C#N)cc1
0.0162

###

# procedureSummary: Tmax in mouse liver at 23 umol/kg, ip administered as bolus by LC-MS analysis
# Assay type: ADME, organism-based
measurementLabel: Tmax (min)
The response must be a number in min with no trailing unit.

Tmax for CNC(=O)COc1ccc(-c2c(C#N)c(NC(=O)c3cccc(C[C@H](N)C(=O)O)c3)n3c(nc4ccccc43)c2C#N)cc1 ?
10

###

# procedureSummary: Plasma concentration in mouse at 23 umol/kg, ip measured after 180 mins
# Assay type: ADME, organism-based
measurementLabel: concentration at 3 h

Using the record for CNC(=O)COc1ccc(-c2c(C#N)c(NC(=O)c3cccc(C[C@H](N)C(=O)O)c3)n3c(nc4ccccc43)c2C#N)cc1 , report its concentration at 3 h.
230 nM
